The measurements presented in this section are drawn from patent US20200102387A1.

# assayed.system: T1, human SIRPα v6-Fc (SIRPα6 extracellular domain fused to human IGHG1_Fc) (human, UniProt P78324 31-373; P0DOX5 223-449 = IgG part)
# T1 construct: as m38; also called V6 (e.g. SIRPα6)
# test.name: BLI Octet, antigen-Fc on biosensor;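 also: antigen captured on the biosensor tip and then immersed in solutions of the test antibodies, which act as the analyte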
assay.endpoint: Kd (nM)
State the answer as a number, implicitly in nM.

Form field Kd, entry SIRPAB-10 (antibody, human IgG1, kappa, V domains shown) VH: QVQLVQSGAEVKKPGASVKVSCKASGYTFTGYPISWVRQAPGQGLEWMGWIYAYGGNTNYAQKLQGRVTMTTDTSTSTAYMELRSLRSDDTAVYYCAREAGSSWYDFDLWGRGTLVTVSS VL: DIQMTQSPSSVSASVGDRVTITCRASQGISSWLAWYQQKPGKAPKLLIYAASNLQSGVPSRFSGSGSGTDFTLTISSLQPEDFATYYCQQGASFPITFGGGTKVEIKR : 0.38
